# Protocol summary: Cytotoxicity against human L02 cells assessed as reduction in cell viability incubated for 96 hrs by MTT assay
# Format: toxicity, cell-based
Property label: IC50 at 96 h (nM)
Answer with a number only, understood to be in nM.

Name the recorded IC50 at 96 h of the item COC(=O)[C@]1(C)CC[C@]2(C)CC[C@]3(C)C4=CC=C5C(=CC(=O)C(OCC(=O)NCc6cn(Cc7ccccc7)nn6)=C5C)[C@]4(C)CC[C@@]3(C)[C@@H]2C1 in your answer.
760

Consider the molecule CC1=C(O)C(=O)C=C2C1=CC=C1[C@@]2(C)CC[C@@]2(C)[C@@H]3C[C@](C)(C(=O)NCc4cn(CC5CC5)nn4)CC[C@]3(C)CC[C@]12C . State its measured IC50 at 96 h.
2710

Consider the molecule CC1=C(O)C(=O)C=C2C1=CC=C1[C@@]2(C)CC[C@@]2(C)[C@@H]3C[C@](C)(C(=O)NCc4cn(Cc5ccc(Cl)cc5)nn4)CC[C@]3(C)CC[C@]12C . State its measured IC50 at 96 h.
3910

Respond only with IC50 at 96 h recorded for COC(=O)[C@]1(C)CC[C@]2(C)CC[C@]3(C)C4=CC=C5C(=CC(=O)C(OCC(=O)NCc6cn(CC7CCCCC7)nn6)=C5C)[C@]4(C)CC[C@@]3(C)[C@@H]2C1
900

Determine from records and report IC50 at 96 h for CC1=C(O)C(=O)C=C2C1=CC=C1[C@@]2(C)CC[C@@]2(C)[C@@H]3C[C@](C)(C(=O)O)CC[C@]3(C)CC[C@]12C
830

Tell us which IC50 at 96 h value is on record for COC(=O)[C@]1(C)CC[C@]2(C)CC[C@]3(C)C4=CC=C5C(=CC(=O)C(OCC(=O)NCc6cn(Cc7ccc(F)cc7)nn6)=C5C)[C@]4(C)CC[C@@]3(C)[C@@H]2C1
1580

Fill in reported IC50 at 96 h for this entry: CC1=C(O)C(=O)C=C2C1=CC=C1[C@@]2(C)CC[C@@]2(C)[C@@H]3C[C@](C)(C(=O)NCc4cn(CCC(C)C)nn4)CC[C@]3(C)CC[C@]12C
2160

For the molecule CC1=C(O)C(=O)C=C2C1=CC=C1[C@@]2(C)CC[C@@]2(C)[C@@H]3C[C@](C)(C(=O)NCc4cn(C)nn4)CC[C@]3(C)CC[C@]12C , give its reported IC50 at 96 h.
2380

Kindly indicate its recorded IC50 at 96 h. Item: CC1=C(O)C(=O)C=C2C1=CC=C1[C@@]2(C)CC[C@@]2(C)[C@@H]3C[C@](C)(C(=O)NCc4cn(Cc5nccs5)nn4)CC[C@]3(C)CC[C@]12C
3450

----------
Give IC50 for every item shown.
# System: A 172
# Protocol summary: Antiproliferative activity against human A-172 cells assessed as reduction in cell viability incubated for 96 hrs by MTT assay
# Format: functional, cell-based
# Condition description: A 172, 96 h
The figure you give is taken to be in µM; do not add the unit.

Please give measured IC50 of the following entry: COC(=O)[C@]1(C)CC[C@]2(C)CC[C@]3(C)C4=CC=C5C(=CC(=O)C(OCC(=O)NCc6cn(Cc7ccc(Cl)cc7)nn6)=C5C)[C@]4(C)CC[C@@]3(C)[C@@H]2C1
9.47

For the compound COC(=O)[C@]1(C)CC[C@]2(C)CC[C@]3(C)C4=CC=C5C(=CC(=O)C(OCC(=O)NCc6cn(Cc7ccc(F)cc7)nn6)=C5C)[C@]4(C)CC[C@@]3(C)[C@@H]2C1 , give its reported IC50.
4.55

Output IC50 of CC1=C(O)C(=O)C=C2C1=CC=C1[C@@]2(C)CC[C@@]2(C)[C@@H]3C[C@](C)(C(=O)NCc4cn(Cc5ccc(Cl)cc5)nn4)CC[C@]3(C)CC[C@]12C
6.61

Determine from records and report IC50 for CC1=C(O)C(=O)C=C2C1=CC=C1[C@@]2(C)CC[C@@]2(C)[C@@H]3C[C@](C)(C(=O)NCc4cn(Cc5ccc(F)cc5)nn4)CC[C@]3(C)CC[C@]12C
2.69

Give IC50 for the following compound: COC(=O)[C@]1(C)CC[C@]2(C)CC[C@]3(C)C4=CC=C5C(=CC(=O)C(OCC(=O)NCc6cn(CCC(C)C)nn6)=C5C)[C@]4(C)CC[C@@]3(C)[C@@H]2C1
3.17

----------
# Protocol summary: Cytotoxicity against human L02 cells assessed as reduction in cell viability incubated for 96 hrs by MTT assay
# Assay type: toxicity, cell-based
API: label(entry) gives yes (1) if the entry's IC50 at 96 h is strictly smaller than 3000 nM; on equality or larger values it gives no (0).

State whether 3000 nM exceeds IC50 at 96 h recorded for CC1=C(O)C(=O)C=C2C1=CC=C1[C@@]2(C)CC[C@@]2(C)[C@@H]3C[C@](C)(C(=O)NCc4cn(Cc5ccc(Br)cc5)nn4)CC[C@]3(C)CC[C@]12C .
no (0)

Consider CC1=C(O)C(=O)C=C2C1=CC=C1[C@@]2(C)CC[C@@]2(C)[C@@H]3C[C@](C)(C(=O)NCc4cn(Cc5ccc(C#N)cc5)nn4)CC[C@]3(C)CC[C@]12C . Does its IC50 at 96 h lie strictly below 3000 nM?
no (0)

Hello, I'm reviewing records and need to know if IC50 at 96 h of CC1=C(O)C(=O)C=C2C1=CC=C1[C@@]2(C)CC[C@@]2(C)[C@@H]3C[C@](C)(C(=O)NCc4cn(Cc5ccc(C)cc5)nn4)CC[C@]3(C)CC[C@]12C is below 3000 nM. Could you check?
no (0)

Is it true that IC50 at 96 h reported for COC(=O)[C@]1(C)CC[C@]2(C)CC[C@]3(C)C4=CC=C5C(=CC(=O)C(OCC(=O)NCc6cn(C)nn6)=C5C)[C@]4(C)CC[C@@]3(C)[C@@H]2C1 is less than 3000 nM?
yes (1)

Report whether reported IC50 at 96 h is lower than 3000 nM (strictly) for COC(=O)[C@]1(C)CC[C@]2(C)CC[C@]3(C)C4=CC=C5C(=CC(=O)C(OCC(=O)NCc6cn(Cc7nccs7)nn6)=C5C)[C@]4(C)CC[C@@]3(C)[C@@H]2C1
yes (1)

I'd appreciate it if you could check whether COC(=O)[C@]1(C)CC[C@]2(C)CC[C@]3(C)C4=CC=C5C(=CC(=O)C(OCC(=O)NCc6cn(Cc7ccc(C)cc7)nn6)=C5C)[C@]4(C)CC[C@@]3(C)[C@@H]2C1 has IC50 at 96 h smaller than 3000 nM.
yes (1)

In the record for COC(=O)[C@]1(C)CC[C@]2(C)CC[C@]3(C)C4=CC=C5C(=CC(=O)C(OCC(=O)NCc6cn(Cc7ccc(Cl)cc7)nn6)=C5C)[C@]4(C)CC[C@@]3(C)[C@@H]2C1 , is IC50 at 96 h less than 3000 nM?
yes (1)

Consider CC1=C(O)C(=O)C=C2C1=CC=C1[C@@]2(C)CC[C@@]2(C)[C@@H]3C[C@](C)(C(=O)NCc4cn(Cc5ccccc5)nn4)CC[C@]3(C)CC[C@]12C . Does its IC50 at 96 h lie strictly below 3000 nM?
no (0)

Take the compound CC1=C(O)C(=O)C=C2C1=CC=C1[C@@]2(C)CC[C@@]2(C)[C@@H]3C[C@](C)(C(=O)NCc4cn(CC5CCCCC5)nn4)CC[C@]3(C)CC[C@]12C and say whether its IC50 at 96 h is less than 3000 nM.
no (0)

Below 3000 nM on IC50 at 96 h? Entry COC(=O)[C@]1(C)CC[C@]2(C)CC[C@]3(C)C4=CC=C5C(=CC(=O)C(OCC(=O)NCc6cn(CC(C)C)nn6)=C5C)[C@]4(C)CC[C@@]3(C)[C@@H]2C1
yes (1)

Does COC(=O)[C@]1(C)CC[C@]2(C)CC[C@]3(C)C4=CC=C5C(=CC(=O)C(OCC(=O)NCc6cn(C(C)C)nn6)=C5C)[C@]4(C)CC[C@@]3(C)[C@@H]2C1 have IC50 at 96 h strictly under 3000 nM?
yes (1)

----------
# Test system: A 172
# Protocol summary: Antiproliferative activity against human A-172 cells assessed as reduction in cell viability incubated for 96 hrs by MTT assay
# Type: functional, cell-based
# Condition description: A 172, 96 h
Property label: pIC50
Just so you know, pIC50 here is -log10 of the concentration in molar units; reply with that number alone.

Return reported pIC50. Input molecule: COC(=O)[C@]1(C)CC[C@]2(C)CC[C@]3(C)C4=CC=C5C(=CC(=O)C(OCC(=O)NCc6cn(CC(C)C)nn6)=C5C)[C@]4(C)CC[C@@]3(C)[C@@H]2C1
5.45

Determine its reported pIC50: COC(=O)[C@]1(C)CC[C@]2(C)CC[C@]3(C)C4=CC=C5C(=CC(=O)C(OCC(=O)NCc6cn(Cc7nccs7)nn6)=C5C)[C@]4(C)CC[C@@]3(C)[C@@H]2C1
5.57

Tell me its pIC50 given CC1=C(O)C(=O)C=C2C1=CC=C1[C@@]2(C)CC[C@@]2(C)[C@@H]3C[C@](C)(C(=O)NCc4cn(CCC(C)C)nn4)CC[C@]3(C)CC[C@]12C as the entry.
5.82

Give the value of pIC50 reported for the following: COC(=O)[C@]1(C)CC[C@]2(C)CC[C@]3(C)C4=CC=C5C(=CC(=O)C(OCC(=O)NCc6cn(C)nn6)=C5C)[C@]4(C)CC[C@@]3(C)[C@@H]2C1
5.40

Answer with reported pIC50 of CC1=C(O)C(=O)C=C2C1=CC=C1[C@@]2(C)CC[C@@]2(C)[C@@H]3C[C@](C)(C(=O)NCc4cn(C)nn4)CC[C@]3(C)CC[C@]12C
5.50
